Quick list: MBC per entry.
tested on: Acinetobacter baumannii 19,606; format: cell-based; conditions: 19,606, 24 h
No end group written: not given here.
Reply with just the number (in µg/mL).

Record GAKYAKIIYNYLKKIANALW [GW-A2] , field MBC: 8

Record GYNYAKKLANLAKKFANALW-NH2 [GW-H1a] , field MBC: 16

Record FIHHIIGGLFSAGKAIHSLIHRRRR [R18S/R21H] , field MBC: 32

Record GRFKRFRKKFKKLFKKLSPVIPLLHLG [BMAP-27] , field MBC: 8

Record FIHHIIGGLFSAGKARHRLIRRRRR [Peptide I16R] , field MBC: 64

Record FIHHIIGGLFSAGKAAHRLIRRRRR [Peptide I16A] , field MBC: 32

Record FIHHIIGGLFSVGKHIHRLIRRRRR [A12V/A15H] , field MBC: 32
